B1: PhoQ; a variant is named by its letters at X, in order, P23837 (parent)
chain: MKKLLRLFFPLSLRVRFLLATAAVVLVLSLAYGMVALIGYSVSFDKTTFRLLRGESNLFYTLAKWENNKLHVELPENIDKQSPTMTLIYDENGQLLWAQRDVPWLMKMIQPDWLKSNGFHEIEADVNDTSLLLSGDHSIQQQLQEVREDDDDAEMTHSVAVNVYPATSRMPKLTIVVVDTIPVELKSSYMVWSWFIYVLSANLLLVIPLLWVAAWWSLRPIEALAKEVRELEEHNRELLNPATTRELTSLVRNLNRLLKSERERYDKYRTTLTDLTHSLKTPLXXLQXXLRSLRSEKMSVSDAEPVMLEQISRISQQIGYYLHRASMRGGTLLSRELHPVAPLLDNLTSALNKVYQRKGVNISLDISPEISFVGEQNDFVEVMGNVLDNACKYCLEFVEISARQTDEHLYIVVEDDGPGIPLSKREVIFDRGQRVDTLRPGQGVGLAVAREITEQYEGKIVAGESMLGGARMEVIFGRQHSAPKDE

# Variants of: B1
# ASSAY DETAILS: enrichment ratio after two sorts for PhoP signalling (ratio (wild type AVST 3.29)); higher = more functional
# ASSAY SETUP: with PhoP (E. coli)
In all, about 140,000 sequences were measured (“enrichment ratio after two sorts for PhoP signalling”: median about 0, highest 2% from about 11 on). For the sample, the highest values were picked, then their nearest neighbours and some sequences at random.
Consider the following variants and their measured enrichment ratio readings.

Example results:
VARIANT DESCRIPTION: ILVT
enrichment ratio: ≤ 0.25

VARIANT DESCRIPTION: GSLV
enrichment ratio: 17.9

VARIANT DESCRIPTION: ICMI
enrichment ratio: ≤ 0.25

VARIANT DESCRIPTION: ADCS
enrichment ratio: ≤ 0.25

VARIANT DESCRIPTION: PPKY
enrichment ratio: ≤ 0.25

VARIANT DESCRIPTION: LNLV
enrichment ratio: ≤ 0.25

VARIANT DESCRIPTION: TFHC
enrichment ratio: ≤ 0.25

VARIANT DESCRIPTION: DPKV
enrichment ratio: ≤ 0.25

What value of enrichment ratio has been recorded for this entry: NSML 4.86

Next variant up: TDCA 14.6

And for LTCQ ? ≤ 0.25

These entries and their values trace back to a collection of fitness landscapes (doi:10.1126/science.1257360).
